Where these numbers come from: paper PMC5031577

# Experiment Summary: Biodistribution in Daudi lymphoma xenograft bearing SCID mice
# Type: in vivo, mouse
# Condition Set: female, CB-17 SCID, mouse, heart, iv, total radioactivity, co-injection of 50 μg AMD3100, n = 3, 1.5 h p.i., mean ± SD; read-out: Heart uptake
Square brackets hold non-standard residues; d marks the D form. Side chains are listed from the residue outwards. Peptide text beside a SMILES is read from it. * marks the point of attachment. NOTA = O=C(O)CN1CCN(CC(=O)O)CCN(CC(=O)*)CC1; 2Nal = N[C@@H](Cc1ccc2ccccc2c1)C(=O)O; dNMeOrn = CN[C@H](CCCN)C(=O)O; 4Amb = NCc1ccc(C(=O)O)cc1
Observed Property: tissue uptake at 1.5 h (%ID/g)
Response body: numeric value in %ID/g, unit text excluded.

-- ask Could you share which tissue uptake at 1.5 h value was measured for CN1C(=O)[C@@H](Cc2ccc(O)cc2)NC(=O)CNC(=O)[C@H](Cc2ccc3ccccc3c2)NC(=O)[C@H](CCCNC(=N)N)NC(=O)[C@H]1CCCNC(=O)c1ccc(CNC(=O)CN2CCN(CC(=O)O)CCN(CC(=O)O)CC2)cc1 [[^68Ga]NOTA-pentixafor, metal not drawn] (cyclo([2Nal]G[dY][dNMeOrn]([4Amb-NOTA])R)) ?
-- reply 0.36

* * *

# Experiment Summary: Biodistribution in Daudi lymphoma xenograft bearing SCID mice
# Format: in vivo, mouse
# Condition Set: female, CB-17 SCID, mouse, muscle, iv, 15.2 MBq, total radioactivity, tracer only, i.v., 1.5 h p.i., mean ± SD; read-out: Muscle uptake
Square brackets hold non-standard residues; d marks the D form. Side chains are listed from the residue outwards. Peptide text beside a SMILES is read from it. * marks the point of attachment. DOTA = O=C(O)CN1CCN(CC(=O)O)CCN(CC(=O)*)CCN(CC(=O)O)CC1; NOTA = O=C(O)CN1CCN(CC(=O)O)CCN(CC(=O)*)CC1; 2Nal = N[C@@H](Cc1ccc2ccccc2c1)C(=O)O; dNMeOrn = CN[C@H](CCCN)C(=O)O; 4Amb = NCc1ccc(C(=O)O)cc1
Observed Property: tissue uptake at 1.5 h (%ID/g)
Response body: numeric value in %ID/g, unit text excluded.

-- ask Could you share which tissue uptake at 1.5 h value was measured for CN1C(=O)[C@@H](Cc2ccc(O)cc2)NC(=O)CNC(=O)[C@H](Cc2ccc3ccccc3c2)NC(=O)[C@H](CCCNC(=N)N)NC(=O)[C@H]1CCCNC(=O)c1ccc(CNC(=O)CN2CCN(CC(=O)O)CCN(CC(=O)O)CCN(CC(=O)O)CC2)cc1 [[^68Ga]pentixafor, metal not drawn] (cyclo([dY][dNMeOrn]([4Amb-DOTA])R[2Nal]G)) ?
-- reply 0.19

-- ask Now consider CN1C(=O)[C@@H](Cc2ccc(O)cc2)NC(=O)CNC(=O)[C@H](Cc2ccc3ccccc3c2)NC(=O)[C@H](CCCNC(=N)N)NC(=O)[C@H]1CCCNC(=O)c1ccc(CNC(=O)CN2CCN(CC(=O)O)CCN(CC(=O)O)CC2)cc1 [[^68Ga]NOTA-pentixafor, metal not drawn] (cyclo([2Nal]G[dY][dNMeOrn]([4Amb-NOTA])R)) and answer again.
-- reply 0.13

* * *

# Experiment Summary: Biodistribution in Daudi lymphoma xenograft bearing SCID mice
# Type: in vivo, mouse
# Condition Set: female, CB-17 SCID, mouse, blood, iv, total radioactivity, co-injection of 50 μg AMD3100, n = 3, 1.5 h p.i., mean ± SD; read-out: Blood uptake
Square brackets hold non-standard residues; d marks the D form. Side chains are listed from the residue outwards. Peptide text beside a SMILES is read from it. * marks the point of attachment. NOTA = O=C(O)CN1CCN(CC(=O)O)CCN(CC(=O)*)CC1; 2Nal = N[C@@H](Cc1ccc2ccccc2c1)C(=O)O; dNMeOrn = CN[C@H](CCCN)C(=O)O; 4Amb = NCc1ccc(C(=O)O)cc1
Observed Property: tissue uptake at 1.5 h (%ID/g)
Response body: numeric value in %ID/g, unit text excluded.

-- ask Could you share which tissue uptake at 1.5 h value was measured for CN1C(=O)[C@@H](Cc2ccc(O)cc2)NC(=O)CNC(=O)[C@H](Cc2ccc3ccccc3c2)NC(=O)[C@H](CCCNC(=N)N)NC(=O)[C@H]1CCCNC(=O)c1ccc(CNC(=O)CN2CCN(CC(=O)O)CCN(CC(=O)O)CC2)cc1 [[^68Ga]NOTA-pentixafor, metal not drawn] (cyclo([2Nal]G[dY][dNMeOrn]([4Amb-NOTA])R)) ?
-- reply 0.62
